# Test system: NCI/ADR-RES
# test.method.notes: NCI tumour cell line growth inhibition, 48 h
Active and inactive are the calls of the source. Rule as the data show it: active = GI50 up to about 1.1 µM and inactive = higher.
Answer with one of the outcomes given here: active, inactive

Could you please tell me the result logged for COc1cccc(-c2nc(O)c3ccccc3n2)c1 in this assay?
inactive

Dear colleague, could you share the recorded outcome for O=C(N/N=C(COc1ccccc1Cl)\N=C\c1cccnc1)c1ccncc1 when you have a moment?
inactive

Field: outcome | Entry: Nc1cc2c(c3ccccc13)C(CCl)CN2C(=O)c1cc2cc(NC(=O)c3cc4ccccc4o3)ccc2[nH]1 (centres undefined)
active

For COc1cc([C@@H]2c3cc4c(cc3[C@H](OC3OC5COC(C(C)C)OC5C(O)C3O)C3COC(=O)[C@@H]32)OCO4)cc(OC)c1OC (some centres undefined) , which call appears in the assay record?
inactive

====

# Test system: Hs-578T
# test.method.notes: NCI tumour cell line growth inhibition, 48 h
The source made the active and inactive calls. Cut-off read from the data, not from the text of the source: active = GI50 up to about 1.1 µM and inactive = higher.
Below, each entry is listed alongside its reported GI50.

What GI50 value was documented for this compound, Nc1ccc2nc3ccc(N)cc3[n+](-c3ccccc3)c2c1 ?
40.6 µM (inactive)

====

# Test system: RXF 393
# test.method.notes: NCI tumour cell line growth inhibition, 48 h
Calls of active or inactive are those of the source. No stated cut-off is given here; in the data, active = GI50 up to about 1.1 µM and inactive = higher.
Outcome (select one): active, inactive

Look over these answered cases.
compound	group
O=CC(=C(I)I)c1ccccc1	inactive
O=[N+]([O-])c1ccc(Nc2cccc3c4cc[nH]c(-c5ccccc5)c-4nc23)c([N+](=O)[O-])c1	inactive
CC1=NN(C(=O)c2ccccc2O)C(=O)/C1=C/c1ccccc1O	active
NNC(=O)CSc1nnc(CCCCCCCCc2nnc(SCC(=O)NN)o2)o1	inactive
CC12CCC3C(CCC4(O)C=CCCC34C=O)C1(O)CC(O)C2c1ccc(=O)oc1 (centres undefined)	active

What did this assay record as the result for COc1ccc2c3c1OC1C(OC)(OC)C=C[C@@]4(Br)[C@@H](C2)N(CC2CC2)CC[C@]314 (some centres undefined) ?
inactive

I'd appreciate the recorded outcome for Cc1c(C)c2c(c(N)c1C#N)C(=O)N(Cc1ccc(S(N)(=O)=O)cc1)C2=O from this test.
inactive

Please state the recorded outcome for this compound: COc1ccc(-c2nc3ccccc3c(=S)n2OC(C)=O)cc1
inactive

Which result was noted for this compound in the test: CC(NP(=O)(c1ccccc1)c1ccccc1)c1ccccc1 (centres undefined)
inactive

For this compound, state the assay outcome: CCOC(=O)C1=C(c2ccccc2)C12N(Cc1ccccc1)C(=O)C2(c1ccccc1)c1ccccc1 (centres undefined)
inactive

Write down the call the test reported for this compound. Item: O=C1NC(c2c(Cl)cccc2Cl)Nc2ccccc21 (centres undefined)
inactive

Test call, this compound: COc1ccc2[nH]c3c([N+](=O)[O-])ccc(NCCCN(C)C)c3/c(=N/CCCN(C)C)c2c1
active

Recorded call for Cc1ccccc1NC(=O)/C(=N/NC(=O)CC#N)C1C(=O)N(c2ccccc2)N=C1N (centres undefined) ?
inactive

Assay outcome for COC(=O)C1=C(c2cc(OC)c(OC)c(OC)c2)OC(c2cc(OC)c(OC)c(OC)c2)C1 (centres undefined) : what was it?
inactive

====

# Test system: ACHN
# test.method.notes: NCI tumour cell line growth inhibition, 48 h
Calls of active or inactive are those of the source. Cut-off read from the data, not from the text of the source: active = GI50 up to about 1.1 µM and inactive = higher.
assay.metric: GI50

Solved cases below.
compound	GI50
CC1=CP(=O)(OC(C)C)CC(C)=C1Cl (centres undefined)	> 100 µM (inactive)
CC(C)(C)OC(=O)CCC1NC(=O)[C@@H]2Cc3c([nH]c4ccccc34)C(c3ccccc3)N2C1=O (some centres undefined)	27.9 µM (inactive)
CCN(CC)CCCNc1nccc2c(C)c3[nH]c4ccncc4c(=O)c3cc12	1.8 µM (inactive)

Could you now look at the following compound, please?
For the compound shown here, COC(=O)C(C(=O)C(=O)NC1Nc2ccc(C)cc2S1)c1nc2ccc(Cl)cc2nc1O (centres undefined) , give the reported GI50.
> 100 µM (inactive)
